From: ChEMBL document CHEMBL1961873

# ASSAY_TARGET: RAC-alpha serine/threonine-protein kinase (Homo sapiens)
# CONDITIONS: at 1 µM
# Description: GSK_PKIS: AKT1 mean inhibition at 1 uM [Nanosyn]
# reported inhibition; entries follow
Respond numerically; units are % and should not be typed.

# example entries with known answers
Cc1ccc(NC(=O)c2ccoc2)cc1-c1ccc(C(=O)NCC2CC2)cc1 = 0.55
CN1CCN(CCCNc2nc3ccc(Oc4ccc(NC(=O)Nc5cc(C(F)(F)F)ccc5F)cc4)cc3[nH]2)CC1 = -3.59
COc1ccc2ncn(-c3cc(O[C@H](C)c4ccccc4Cl)c(C(N)=O)s3)c2c1 = -2.95
COc1cc2ncn(-c3cc(OCc4cccs4)c(C(N)=O)s3)c2cc1OC = -1.83
C/C(Nc1ccc(S(N)(=O)=O)cc1)=C1/C(=O)Nc2ccccc21 = -1.45

Exercise: Dear colleague, please send me the reported inhibition for COc1cc(N2CCN(C(C)C)CC2)ccc1Nc1nc(Nc2ccc(F)cc2C(=O)NC[C@@H](O)CO)c2cc[nH]c2n1 when you can.
Solution: -2.63

Exercise: Dear colleague, please send me the reported inhibition for O=C(Nc1n[nH]c2cc(-c3ccccc3)ccc12)C1CC1 when you can.
Solution: -0.63

Exercise: Dear colleague, please send me the reported inhibition for COc1cc(C)c(N(C)C(=O)CN(C)C)cc1Nc1nc(Nc2cccc(F)c2C(N)=O)c2cc[nH]c2n1 when you can.
Solution: -1.8

Exercise: Dear colleague, please send me the reported inhibition for Fc1ccc(-c2ncn(C3CCNCC3)c2-c2ccnc(Oc3ccc(Oc4ccccc4)cc3)n2)cc1 when you can.
Solution: 1.87

Exercise: Dear colleague, please send me the reported inhibition for C[C@@H](Oc1cc(-n2cnc3ccc(OCC4CCN(C)CC4)cc32)sc1C(N)=O)c1ccccc1Cl when you can.
Solution: 0.38

Exercise: Dear colleague, please send me the reported inhibition for COc1cc2ncn(-c3cc(OCc4ccccc4C(F)(F)F)c(C(C)=O)s3)c2cc1OC when you can.
Solution: 1.82

Exercise: Dear colleague, please send me the reported inhibition for COc1ccc2cc(-c3c(-c4ccncc4)nc(-c4ccc([S+](C)[O-])cc4C)n3C)ccc2c1 (stereo unspecified) when you can.
Solution: -0.09

----------
# reported inhibition; entries follow
# ASSAY_TARGET: Tyrosine-protein kinase JAK2 (Homo sapiens) (UniProt O60674);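 also: mean percent inhibition of JAK2 activity, from the GSK PKIS kinase panel screen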
# Sequence (O60674 whole entry): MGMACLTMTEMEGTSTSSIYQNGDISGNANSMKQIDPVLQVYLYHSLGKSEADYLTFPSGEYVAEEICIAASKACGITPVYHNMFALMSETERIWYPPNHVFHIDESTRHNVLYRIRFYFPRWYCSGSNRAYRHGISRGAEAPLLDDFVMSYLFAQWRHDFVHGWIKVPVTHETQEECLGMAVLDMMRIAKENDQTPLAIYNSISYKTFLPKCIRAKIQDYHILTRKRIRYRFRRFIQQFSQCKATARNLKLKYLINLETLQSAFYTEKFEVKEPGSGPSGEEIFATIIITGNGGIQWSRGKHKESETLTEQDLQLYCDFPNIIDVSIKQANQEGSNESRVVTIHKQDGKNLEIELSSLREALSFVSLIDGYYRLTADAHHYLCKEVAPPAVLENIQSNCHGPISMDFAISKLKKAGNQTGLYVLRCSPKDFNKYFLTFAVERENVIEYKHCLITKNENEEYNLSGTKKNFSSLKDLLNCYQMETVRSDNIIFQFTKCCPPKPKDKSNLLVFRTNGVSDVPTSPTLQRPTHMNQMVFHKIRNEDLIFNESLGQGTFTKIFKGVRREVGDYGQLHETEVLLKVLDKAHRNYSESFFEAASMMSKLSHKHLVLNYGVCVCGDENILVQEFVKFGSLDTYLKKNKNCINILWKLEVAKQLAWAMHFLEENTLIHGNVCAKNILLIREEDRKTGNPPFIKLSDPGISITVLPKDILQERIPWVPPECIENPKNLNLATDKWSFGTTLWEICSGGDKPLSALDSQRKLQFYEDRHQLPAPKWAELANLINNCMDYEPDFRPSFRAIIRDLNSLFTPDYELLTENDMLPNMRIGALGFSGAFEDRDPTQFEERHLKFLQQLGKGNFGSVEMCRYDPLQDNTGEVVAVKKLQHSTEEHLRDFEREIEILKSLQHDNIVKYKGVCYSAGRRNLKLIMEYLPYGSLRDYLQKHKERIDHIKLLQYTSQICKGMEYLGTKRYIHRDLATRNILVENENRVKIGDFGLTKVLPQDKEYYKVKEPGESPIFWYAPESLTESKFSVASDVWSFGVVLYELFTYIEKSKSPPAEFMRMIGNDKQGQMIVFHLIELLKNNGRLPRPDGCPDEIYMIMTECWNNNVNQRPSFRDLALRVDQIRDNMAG
# CONDITIONS: at 0.1 µM
Respond numerically; units are % and should not be typed.

# example entries with known answers
O=C(NCC1CC1)c1ccc(-c2cccc(C(=O)NC3CC3)c2)cc1 = 1.73
COc1cccc(-n2cnc3c(N/N=C/c4ccncc4)ncnc32)c1 = 0.27
N#Cc1ccc(Oc2nccc(-c3c(-c4ccc(F)cc4)ncn3C3CCNCC3)n2)cc1 = 1.47
NCc1ccc(-n2c(-c3nonc3N)nc3cnccc32)cc1 = 1.95
O=C(Nc1n[nH]c2cc(-c3ccccc3)ccc12)C1CC1 = 2.26

Exercise: Fetch value of inhibition on Tyrosine-protein kinase JAK2 (Homo sapiens) (UniProt O60674) for Clc1ccc(CNc2nccc(-c3cnn4ncccc34)n2)cc1 .
Solution: 1.52

Exercise: Fetch value of inhibition on Tyrosine-protein kinase JAK2 (Homo sapiens) (UniProt O60674) for Fc1ccc(-c2ncn(C3CCNCC3)c2-c2ccnc(Oc3ccc4c(c3)OCO4)n2)cc1 .
Solution: 0.42

Exercise: Fetch value of inhibition on Tyrosine-protein kinase JAK2 (Homo sapiens) (UniProt O60674) for O=C1NC(=O)C(c2cccc(Cl)c2)=C1Nc1ccc(Cl)c(C(=O)O)c1 .
Solution: 0.64

Exercise: Fetch value of inhibition on Tyrosine-protein kinase JAK2 (Homo sapiens) (UniProt O60674) for COc1ccc(C2=C(N3CCc4ccccc43)C(=O)NC2=O)cc1 .
Solution: 2.9

Exercise: Fetch value of inhibition on Tyrosine-protein kinase JAK2 (Homo sapiens) (UniProt O60674) for CS(=O)(=O)CCNCc1ccc(-c2ccc3ncnc(Nc4ccc(OCc5ccccc5)c(Br)c4)c3c2)o1 .
Solution: 1.19

Exercise: Fetch value of inhibition on Tyrosine-protein kinase JAK2 (Homo sapiens) (UniProt O60674) for O=C1Nc2ccccc2/C1=C/Nc1ccc(-n2cncn2)cc1 .
Solution: 0.53

Exercise: Fetch value of inhibition on Tyrosine-protein kinase JAK2 (Homo sapiens) (UniProt O60674) for NS(=O)(=O)c1ccc(Nc2cc(-c3ccc(O)c(F)c3)n[nH]2)cc1 .
Solution: -0.13

Exercise: Fetch value of inhibition on Tyrosine-protein kinase JAK2 (Homo sapiens) (UniProt O60674) for CCN(CC)Cc1ccc(Nc2nccc(-c3cnn4ncccc34)n2)cc1 .
Solution: 6.24
